- experimental-protocol: Serum clearance in intra-abdominal infection patient at 100 mg followed by 50 mg every 12 hrs for 5 to 14 days
- Format: ADME, organism-based
- condition: human
property-label: clearance (mL/min)
Give the number; mL/min is assumed, so skip it.

Quick note, clearance for `CN(C)c1cc(NC(=O)CNC(C)(C)C)c(O)c2c1C[C@H]1C[C@H]3[C@H](N(C)C)C(O)=C(C(N)=O)C(=O)[C@@]3(O)C(O)=C1C2=O` landed at 268

---

- experimental-protocol: AUC in intra-abdominal infection patient at 100 mg followed by 50 mg every 12 hrs for 5 to 14 days
- Assay type: ADME, organism-based
- condition: human, plasma
property-label: AUC (ng·h/mL)
Give the number; ng·h/mL is assumed, so skip it.

Quick note, AUC for `CN(C)c1cc(NC(=O)CNC(C)(C)C)c(O)c2c1C[C@H]1C[C@H]3[C@H](N(C)C)C(O)=C(C(N)=O)C(=O)[C@@]3(O)C(O)=C1C2=O` landed at 6190
